# experimental-system: CRAC channel (endogenous SOC in HEK293 cells) (Homo sapiens, UniProt Q96D31)
# Construct: endogenous in cells; host or cells: HEK293 (ECACC)
# Sequence (Q96D31 whole entry): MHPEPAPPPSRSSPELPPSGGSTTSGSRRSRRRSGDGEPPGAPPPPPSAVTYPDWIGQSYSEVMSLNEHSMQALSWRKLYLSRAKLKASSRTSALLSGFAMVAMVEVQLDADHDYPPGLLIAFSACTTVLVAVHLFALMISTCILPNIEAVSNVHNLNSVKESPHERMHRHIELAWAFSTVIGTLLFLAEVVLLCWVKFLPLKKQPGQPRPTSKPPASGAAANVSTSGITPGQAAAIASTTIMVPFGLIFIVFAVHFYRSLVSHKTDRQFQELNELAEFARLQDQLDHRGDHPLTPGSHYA
# method-summary: HEK Calcium Influx Assay (FLIPR)
# Type: cell-based
# condition-notes: thapsigargin store depletion, read-out: % inhib. [@ 10 μM] FLIPR
Structures can show the parent of a compound that is named as a salt.
For each entry below, report its inhibition at 10 µM value.

Request: For COc1ncc(-c2nn(C)c(=O)o2)cc1-c1cc(C(=O)Nc2c(F)cccc2F)nn1C , what is its reported inhibition at 10 µM?
Response: < 50%

Request: Next record, please: CCOc1cc(OC)c(-c2cc(C(=O)Nc3c(F)cncc3F)nn2C)cn1
Response: > 70%

Request: Next record, please: COCc1cc(C)c(-c2cc(C(=O)Nc3c(F)cccc3F)nn2C)cn1
Response: 50 to 70%

Request: Next record, please: CCOc1cc(C)c(-c2cc(C(=O)Nc3c(F)cncc3F)nn2C)cn1
Response: > 70%

Request: Next record, please: COc1cc(OC)c(-c2c(Cl)c(C(=O)Nc3c(F)cccc3F)nn2C)cn1
Response: > 70%

Request: Next record, please: COc1cc(OC)c(-c2cc(C(=O)Nc3c(F)cccc3F)n[nH]2)cn1 [Example 69, hydrochloride]
Response: > 70%

Request: Next record, please: COc1cc(OC(F)F)ncc1-c1cc(C(=O)Nc2c(F)cncc2F)nn1C
Response: > 70%

Request: Next record, please: COc1cc(OC)c(-c2c(C)c(C(=O)Nc3c(F)cncc3F)nn2C)cn1
Response: > 70%

Request: Next record, please: COc1cc(OCC(F)(F)F)ncc1-c1cc(C(=O)Nc2c(F)cccc2F)nn1C
Response: > 70%

Request: Next record, please: COCCOc1cc(C)c(-c2cc(C(=O)Nc3c(F)cccc3F)nn2C)cn1
Response: > 70%

Request: Next record, please: Cc1cc(OC(C)C)ncc1-c1cc(C(=O)Nc2c(F)cccc2F)nn1C
Response: > 70%

Request: Next record, please: COc1cc(OCC2CC2)ncc1-c1cc(C(=O)Nc2c(F)cccc2F)nn1C
Response: > 70%

Request: Next record, please: CCOc1ncc(-c2cc(C(=O)Nc3c(F)cccc3F)nn2C)c(C)c1F
Response: < 50%

Request: Next record, please: Cc1cc(C(F)(F)F)ncc1-c1cc(C(=O)Nc2c(F)cccc2F)nn1C
Response: > 70%

Request: Next record, please: CCOc1cc(OC)c(-c2cc(C(=O)Nc3c(F)cccc3F)n[nH]2)cn1 [Example 68, hydrochloride]
Response: > 70%

Request: Next record, please: Cn1nc(C(=O)Nc2c(F)cncc2F)cc1-c1cnc(C2CC2)cc1C(F)(F)F
Response: > 70%

Request: Next record, please: COc1cc(OC(F)F)ncc1-c1cc(C(=O)Nc2c(F)cccc2F)nn1C
Response: > 70%

Request: Next record, please: COc1cc(OCC2COC2)ncc1-c1cc(C(=O)Nc2c(F)cccc2F)nn1C
Response: 50 to 70%

###

For each entry below, report its inhibition at 10 µM value.
# experimental-system: CRAC channel (endogenous SOC in HEK293 cells) (Homo sapiens, UniProt Q96D31)
# Construct: endogenous in cells; host or cells: HEK293 (ECACC)
# method-summary: HEK Calcium Influx Assay (FLIPR)
# Assay type: cell-based
# condition-notes: thapsigargin store depletion, read-out: % inhib. [@ 10 μM] FLIPR

Request: For Cc1cc(C#N)ncc1-c1cc(C(=O)Nc2c(F)cccc2F)nn1C , what is its reported inhibition at 10 µM?
Response: < 50%

Request: Next record, please: CCOc1cc(O)c(-c2cc(C(=O)Nc3c(F)cccc3F)nn2C)cn1
Response: < 50%

Request: Next record, please: CCOc1ccc(-c2cc(C(=O)Nc3c(F)cccc3F)nn2C)c(C)n1
Response: > 70%

Request: Next record, please: Cc1cc(OCC2CCC2)ncc1-c1cc(C(=O)Nc2c(F)cncc2F)nn1C
Response: > 70%

Request: Next record, please: CCc1cc(C)c(-c2cc(C(=O)Nc3c(F)cncc3F)nn2C)cn1
Response: 50 to 70%

Request: Next record, please: COc1cc(OC)c(-c2c(C)c(C(=O)Nc3c(F)cccc3F)nn2C)cn1
Response: > 70%

Request: Next record, please: COc1cc(OC2CC2)ncc1-c1cc(C(=O)Nc2c(F)cccc2F)nn1C
Response: > 70%

Request: Next record, please: Cc1c(-c2cc(C(=O)Nc3c(F)cncc3F)nn2C)cnc(C2CC2)c1F
Response: > 70%

Request: Next record, please: CCOc1cc(OC(F)F)c(-c2cc(C(=O)Nc3c(F)cccc3F)nn2C)cn1
Response: > 70%

Request: Next record, please: Cn1nc(C(=O)Nc2c(F)cccc2F)cc1-c1nc(C(C)(C)C)ccc1C#N
Response: < 50%

Request: Next record, please: Cn1nc(C(=O)Nc2c(F)cccc2F)cc1-c1nc(C(F)(F)F)ccc1C#N
Response: < 50%

Request: Next record, please: COc1cc(OC)c(-c2c(C)c(C(=O)Nc3cnc(C)cc3C)nn2C)cn1
Response: 50 to 70%

Request: Next record, please: COc1cc(Cl)c(-c2cc(C(=O)Nc3c(F)cccc3F)nn2C)cn1
Response: > 70%

Request: Next record, please: COc1cc(OC)c(-c2cc(C(=O)Nc3c(F)cccc3F)nn2C)cn1
Response: > 70%

Request: Next record, please: Cc1c(-c2cc(C(=O)Nc3c(F)cccc3F)nn2C)cnc(C2CC2)c1F
Response: > 70%

Request: Next record, please: CCOc1cc(OCC)c(-c2cc(C(=O)Nc3c(F)cccc3F)nn2C)cn1
Response: > 70%

Request: Next record, please: CCOc1cc(OC)c(-c2cc(C(=O)Nc3c(F)cccc3F)nn2C)cn1
Response: > 70%

Request: Next record, please: CCOc1ncc(-c2cc(C(=O)Nc3c(F)cncc3F)nn2C)c(C)c1F
Response: 50 to 70%

Request: Next record, please: COc1cc(C2CC2)ncc1-c1cc(C(=O)Nc2c(F)cccc2F)nn1C
Response: > 70%

Request: Next record, please: Cn1nc(C(=O)Nc2c(F)cccc2F)cc1-c1cnc(C2CC2)cc1C(F)(F)F
Response: > 70%

Request: Next record, please: COc1cc(OC2COC2)ncc1-c1cc(C(=O)Nc2c(F)cccc2F)nn1C
Response: 50 to 70%

Request: Next record, please: COc1cc(OC)c(-c2c(C)c(C(=O)Nc3cncc(F)c3C)nn2C)cn1
Response: > 70%

Request: Next record, please: Cc1cc(OC2COC2)ncc1-c1cc(C(=O)Nc2c(F)cccc2F)nn1C
Response: > 70%

Request: Next record, please: Cc1cc(C2CC2)ncc1-c1cc(C(=O)Nc2c(F)cccc2F)nn1C
Response: > 70%

Request: Next record, please: CCOc1cc(C)c(-c2cc(C(=O)Nc3c(F)cccc3F)nn2C)cn1
Response: > 70%

Request: Next record, please: Cc1cc(OC(F)(F)F)ncc1-c1cc(C(=O)Nc2c(F)cncc2F)nn1C
Response: > 70%

Request: Next record, please: Cc1cc(OC2CC2)ncc1-c1cc(C(=O)Nc2c(F)cccc2F)nn1C
Response: > 70%

Request: Next record, please: Cc1cc(COc2cc(C)c(-c3cc(C(=O)Nc4c(F)cccc4F)nn3C)cn2)no1
Response: > 70%

Request: Next record, please: CCOc1cc(OCC)c(-c2cc(C(=O)Nc3c(F)cncc3F)nn2C)cn1
Response: > 70%

Request: Next record, please: COc1cc(O)ncc1-c1cc(C(=O)Nc2c(F)cccc2F)nn1C
Response: < 50%

Request: Next record, please: CCc1cc(C)c(-c2cc(C(=O)Nc3c(F)cccc3F)nn2C)cn1
Response: > 70%

Request: Next record, please: Cc1cc(OC2CC2)ncc1-c1cc(C(=O)Nc2c(F)cncc2F)nn1C
Response: > 70%

Request: Next record, please: CCOc1cc(OC2COC2)c(-c2cc(C(=O)Nc3c(F)cccc3F)nn2C)cn1
Response: 50 to 70%

Request: Next record, please: Cc1cc(OC(F)(F)F)ncc1-c1cc(C(=O)Nc2c(F)cccc2F)nn1C
Response: > 70%

Request: Next record, please: CCOc1cc(C(F)(F)F)c(-c2cc(C(=O)Nc3c(F)cccc3F)nn2C)cn1
Response: > 70%

Request: Next record, please: Cc1cc(N(C)C)ncc1-c1cc(C(=O)Nc2c(F)cccc2F)nn1C
Response: > 70%

Request: Next record, please: CCOc1cc(C(F)(F)F)c(-c2cc(C(=O)Nc3c(F)cncc3F)nn2C)cn1
Response: > 70%

Request: Next record, please: COc1cc(OCC2CCC2)ncc1-c1cc(C(=O)Nc2c(F)cccc2F)nn1C
Response: > 70%
